Cited source for all entries: PubChem BioAssay (NCI)

Attribute: TGI
Tested on: ACHN renal
assay_text: NCI tumour cell line growth inhibition, 48 h

1. CC(C)(c1ccc(C=O)o1)c1ccc(C(C)(C)c2ccc(C=O)o2)o1 : > 100 µM
2. CCn1c(=O)c2nc(SC)sc2n(-c2ccccc2)c1=S : > 100 µM
3. COc1cc(/C=N/NC(=O)c2cnn3c2NC(c2ccccc2)C3)ccc1OCc1ccccc1 (stereo not given) : 6.99 µM
4. O=C(O)COc1c(Cl)cc(Cl)c(C(c2c(Cl)cc(Cl)c(OCC(=O)O)c2Cl)C(Cl)(Cl)Cl)c1Cl : > 100 µM
5. ClC/C=C/CSc1ncnc2nc[nH]c12 : > 100 µM

[Q] Read off the recorded TGI for N#C/C(=C/c1ccc([N+](=O)[O-])o1)c1ccccc1
[A] > 100 µM

[Q] Read off the recorded TGI for O=C(Nc1c[nH]c(=O)[nH]c1=O)Oc1ccccc1
[A] > 100 µM

[Q] Read off the recorded TGI for O=C1OCOC2(CCCC2)C1c1ccccc1 (stereo not given)
[A] > 100 µM

[Q] Read off the recorded TGI for CNC(=O)OC1/C(C)=C\C(C)C(O)C(OC)CC(C)CC2=C(OC)C(=O)C=C(C2=O)N(C)C(=O)/C(C)=C/C=C\C1OC (stereo not given)
[A] 20.9 µM

[Q] Read off the recorded TGI for Cc1c(CCCl)c(Cl)n2c(nc3ccccc32)c1C#N
[A] 2.14 µM

* * *

Test system: OVCAR-8 ovarian
assay_text: NCI tumour cell line growth inhibition, 48 h
Attribute: TGI

Use these answered entries as a reference point.
1) c1cc(CSP234N5CCN2CCN3CCN4CC5)cc(CSP234N5CCN2CCN3CCN4CC5)c1 : 41.9 µM
2) COc1ccc2c(c1O)[C@@]13CCCC=C1[C@@H](C2)N(C)CC3 : > 100 µM
3) ClC/C=C/CSc1ncnc2nc[nH]c12 : > 100 µM
4) COc1cc(C2c3cc4c(cc3[C@@H](Nc3ccc(F)cc3)C3COC(=O)[C@H]23)OCO4)cc(OC)c1O (stereo partly specified) : 15.6 µM
5) CC(C)C(Sc1nc(N)nc2nc[nH]c12)C(=O)O (stereo unspecified) : > 100 µM

From here, focus on the item given below.
[Q] Read off the recorded TGI for C=CCSC1=N/C(=C\c2ccc(C)cc2)C(=O)N1CC=C
[A] > 100 µM

* * *

Test system: EKVX NSCLC
assay_text: NCI tumour cell line growth inhibition, 48 h
recorded_metric: TGI

Use these answered entries as a reference point.
1) COc1cc2c3c(c4ccc(O)cc4c2cc1OC)[C@@H](O)[C@@H]1CCCN1C3 : 0.00625 µM
2) C=CCSC1=N/C(=C\c2ccc(C)cc2)C(=O)N1CC=C : 34.1 µM
3) CC1=Nc2ccccc2S/C1=C1/C=NC(=NC#N)N=C1C(=O)Nc1cccc(Cl)c1 : > 100 µM

[Q] Read off the recorded TGI for CCC(C)C(NC(=O)c1cccc2c(=O)c3ccccc3[nH]c12)C(=O)O (centres undefined)
[A] > 100 µM

[Q] Read off the recorded TGI for COc1ccc(/C=C\c2cc(OC)c(OC)c(OC)c2)cc1NC(=O)/C=C/c1cc(OC)c(OC)c(OC)c1
[A] > 100 µM

[Q] Read off the recorded TGI for CN1CCN(Cc2ccc(NC(=O)c3cncc(C#Cc4c(N)ncc5ccccc45)c3)cc2C(F)(F)F)CC1
[A] 1.26 µM

* * *

Tested on: OVCAR-8 ovarian
assay_text: NCI tumour cell line growth inhibition, 48 h
recorded_metric: GI50

Use these answered entries as a reference point.
1) O=C(c1ccccc1)c1nn(-c2cccc(Cl)c2)c2nc3nc(-c4ccccc4)cc(=O)n3nc12 : > 25 µM
2) COc1cccc(/C=C\C(=O)c2ccccc2)c1 : 7.83 µM
3) COC(=O)[C@]12CC[C@@H](C)[C@H](C)[C@@H]1C1=CC[C@@H]3[C@@]4(C)C[C@@H](OC(C)=O)[C@H](OC(C)=O)[C@@](C)(COC(C)=O)[C@@H]4[C@H](O)C[C@@]3(C)[C@]1(C)CC2 : 3.15 µM
4) CC(=O)[CH-]C(=O)c1ccccc1.CC(=O)[CH-]C(=O)c1ccccc1.Cl.[O-]CCc1ccccn1.[O-]CCc1ccccn1.[Ti+4] : 30.1 µM
5) CCc1ccc([OH2+])c(C(=O)[O-])c1.CCc1ccc([OH2+])c(C(=O)[O-])c1.CCc1ccc([OH2+])c(C(=O)[O-])c1.CCc1ccc([OH2+])c(C(=O)[O-])c1.[Cu+2].[Cu+2] : 5.59 µM

[Q] Read off the recorded GI50 for O=C(O)CCCCCNCc1cc2cc3c(cc2c2cc(OCc4ccccc4)ccc12)OCO3
[A] 1.61 µM

[Q] Read off the recorded GI50 for C=C(CN1CCN(c2cc(C(F)(F)F)cc(C(F)(F)F)c2)CC1)c1ccc(C(=O)Nc2ccccc2N)cc1
[A] 9.55 µM

[Q] Read off the recorded GI50 for CCCCCn1sc(=O)n(Cc2ccc(CNC(=O)C(C)c3ccc(CC(C)C)cc3)cc2)c1=O (stereo not drawn)
[A] 1.09 µM

[Q] Read off the recorded GI50 for CCOC(=O)c1c(CN2CCCCC2)nc2ccc(Cl)cc2c1-c1ccccc1
[A] 35.4 µM

[Q] Read off the recorded GI50 for C=C1C(C)C2C(Cc3ccccc3)NC(=O)C23C(OC(C)=O)C=CC(C)(O)C(=O)C(C)C/C=C/C3C1O (stereo not drawn)
[A] > 471 µM

[Q] Read off the recorded GI50 for OC[C@H]1C[C@](O)(c2ccccc2Cl)[C@@H](c2ccccc2Cl)O1
[A] 26.4 µM

[Q] Read off the recorded GI50 for N#Cc1ccc2c(-c3ccnc(NC4CC4)n3)c(-c3ccc(F)cc3)nn2c1
[A] > 25 µM

[Q] Read off the recorded GI50 for Nc1nc(SCC#CCCl)c2[nH]cnc2n1
[A] 11.6 µM

* * *

Test system: HS 578T breast
assay_text: NCI tumour cell line growth inhibition, 48 h
recorded_metric: TGI

[Q] For HS 578T breast, give TGI of the listed molecule: O=C(CC1(O)C(=O)Nc2ccc(Cl)cc21)c1ccc(C(=O)NCC2CCC3(CC2)OOC2(CCCCC2)OO3)cc1 (stereo not given)
[A] > 28.2 µM

[Q] For HS 578T breast, give TGI of the listed molecule: COc1ccc(/C=N/n2c(-c3ccccc3)n[nH]c2=O)c(OC)c1
[A] 80 µM

[Q] For HS 578T breast, give TGI of the listed molecule: COc1ccc([C@@H]2[C@@H](Cl)C(=O)N2c2cc(OC)c(OC)c(OC)c2)cc1C
[A] 77.4 µM

[Q] For HS 578T breast, give TGI of the listed molecule: O=C(O)COc1c(Cl)cc(Cl)c(C(c2c(Cl)cc(Cl)c(OCC(=O)O)c2Cl)C(Cl)(Cl)Cl)c1Cl
[A] > 100 µM

[Q] For HS 578T breast, give TGI of the listed molecule: CCCCCCCC(=O)NC(C)(C)C(=O)NCC(=O)NC(CC(C)C)C(=O)NC(C)(C)C(=O)NCC(=O)NCC(=O)NC(CC(C)C)C(=O)NC(C)(C)C(=O)NCC(=O)NC(C(=O)NC(CO)CC(C)C)C(C)CC (stereo not given)
[A] 8.81 µM

* * *

Tested on: HL-60(TB) leukemia
assay_text: NCI tumour cell line growth inhibition, 48 h; in the data active means GI50 below about 0.43 µM; inactive means the rest
Response enum: active, inactive

Reference set, count: 6
1. COc1ccc(/C(=C(\c2ccccc2)[N+](=O)[O-])c2ccc(OCCN3CCCC3)cc2)cc1 : inactive
2. CCCCCCCCCC(=O)Oc1ccc(/C(=C(/C)c2ccccc2)c2ccc(OCCN3CCCC3)cc2)cc1 : inactive
3. O=C(O)CCCCCNCc1cc2cc3c(cc2c2cc(OCc4ccccc4)ccc12)OCO3 : inactive
4. CSc1ccc(-c2cn3ccsc3n2)cc1 : inactive
5. COC(=O)c1sc(-n2cnc3cc(OC)c(OC)cc32)cc1OCc1ccccc1C(F)(F)F : inactive
6. COc1ccc([C@@H]2[C@@H](Cl)C(=O)N2c2cc(OC)c(OC)c(OC)c2)cc1C : active

[Q] # lookup: test call for OC[C@H]1C[C@](O)(c2ccccc2Cl)[C@@H](c2ccccc2Cl)O1
[A] inactive

[Q] # lookup: test call for CN1CCN(Cc2ccc(NC(=O)c3cncc(C#Cc4c(N)ncc5ccccc45)c3)cc2C(F)(F)F)CC1
[A] active

[Q] # lookup: test call for COc1cc(F)c(F)c(Nc2ccc(I)cc2F)c1NS(=O)(=O)C1(CC(O)CO)CC1 (stereo not given)
[A] inactive

[Q] # lookup: test call for N#Cc1cnn(C(=O)c2nn(-c3ccc(Cl)cc3)cc2O)c1N
[A] active

* * *

Test system: HCC-2998 colon
assay_text: NCI tumour cell line growth inhibition, 48 h; in the data active = GI50 below about 0.43 µM; inactive = the rest
Response enum: active, inactive

Reference set, count: 3
1. Oc1ccccc1/C=N\NC(=S)Nc1ccc(F)cc1 : inactive
2. O=C(/C=C/c1ccco1)Nc1ncc(Cc2cc(Cl)ccc2Cl)s1 : active
3. CC[C@H](C)[C@H](NC(=O)CN(C)C)C(=O)N(C)[C@H](C[C@@H](OC(C)=O)c1nc(C(=O)NC23C4C5C2C2C3C4C52C(=O)OC)cs1)C(C)C (some centres undefined) : inactive

[Q] # lookup: test call for O=C(CC1(O)C(=O)Nc2ccc(Cl)cc21)c1ccc(C(=O)NCC2CCC3(CC2)OOC2(CCCCC2)OO3)cc1 (centres undefined)
[A] inactive
